Numbers sourced from patent US20260258115A1.

- test.target: RSV F on RSV subtype A virus (RSV-A2) (Respiratory Syncytial Virus, subtype A, …, UniProt P03420 26-574)
- test: cell-based or functional assay
attribute.measured: Neutralization - RSV A2 IC50 (pM)

• ADI-41249 (antibody, V domains shown) VH: QVQLVQSGAEVKKPGESLKISCQVSRDTSTTYWIGWVRQMPGKGLEWMGIIFPGDSDTRYSPSFQGQVTISADKSIMTAYLQLTSLKASDTAMYYCATQALRGAFDIWGQGTMVTVSS VL: DIRLTQSPSSLSASVGDRVTITCQASQDISNYLNWYQQKPGKAPKLLIYDASYLETGVPSRFSGSGSGTDFTFTISSLQPEDFATYYCQQYDDLLFTFGPGTKLEIK = 51.7
• ADI-36669 (antibody, V domains shown) VH: EVQLVQSGAEVKKPGASVRVYCKASGYTFTTYYIHWVRQAPGQGLEWMGMINPSGGTTSYAQKFQGRLTMTGDTSTSTVYMELNYLRSEDTAVYYCTRDFIYFYGSGDGFDYWGQGTLVTVSS VL: EIVMTQSPSAMSASVGDRVTITCRASQGISNYLAWFQQKPGKVPKRLIYAASSLQSGVPSRFSGSGSGTEFTLTITSLQPEDFATYYCLQHNSYPFTFGPGTKVEIK = 111
• ADI-20974 (antibody, V domains shown) VH: EVQLVESGGGLVKPGGSLRLSCAASGFSFSSYQINWVRQAPGKGLEWVSSISGGSSYTDYADSIKGRFTISRDNAKKSAFLQMKSLRADDTAVYYCARALMATAGGLAFDIWGQGTMVTVSS VL: QPVLTQPPSVSGAPGQRVTISCTGSGSNIGAGYDVHWYQQVPGTAPKLLILRNTNRPSGVPDRFSGSKSGTSASLAITGLQAEDEADYYCQSYDRSLSVVFGGGTKLTVL = 75.4
